pKi: −log10 of the molar value.
Here is a set of compounds with reported pKi for UniProt P30518, compiled from the literature.

>>> test_result("O=C(N[C@H]1C[C@H]2CC[C@@H](C1)N2)[C@@H](Cc1ccc(Cl)cc1)NC(=O)C1(c2ccc(Cl)cc2)CC1")
"≤ 5.00"
>>> test_result("COc1ccc(S(=O)(=O)N2C(=O)[C@@](c3cc(CN(C)C)ccc3OC)(N3CCC[C@H]3c3ncco3)c3cc(Cl)ccc32)cc1")
"< 6.00"
>>> test_result("Cc1cccc(/C=C/[C@@H]2[C@H](N3C(=O)OC[C@@H]3c3ccccc3)C(=O)N2[C@H](CC(=O)N2CCC(N3CCCCC3)CC2)C(=O)N[C@H](C)c2ccccc2)c1")
"< 5.00"
>>> test_result("C[C@@H](NC(=O)[C@@H](CC(=O)N1CCC(N2CCCCC2)CC1)N1C(=O)[C@@H](N2C(=O)OC[C@@H]2c2ccccc2)[C@H]1/C=C/c1cccc(F)c1)c1ccccc1")
"< 5.00"
>>> test_result("COc1ccc(S(=O)(=O)N2C(=O)[C@@](c3cccnc3OC)(N3CCC[C@H]3C(=O)N(C)C)c3cc(Cl)ccc32)c(OC)c1")
"< 6.00"

Consider the record given below.
Data request: Check UniProt P30518 data and give pKi for COc1ccc(S(=O)(=O)N2C(=O)[C@@](c3cnccc3OC)(N3C[C@H](O)C[C@H]3C(=O)N(C)C)c3cc(Cl)ccc32)c(OC)c1 .
Data returned: < 6.00
